Test: Hematology assays in cynomolgus monkeys (Example 45)
Format: in vivo
Conditions: day 85; escalating dose regimen
endpoint.label: MCV (fL)
Give a bare numeral; the unit fL is implied.

ISIS 417002: MOE gapmer, nucleobases 1275 to 1318 of SEQ ID NO: 1 (Table 8) (antisense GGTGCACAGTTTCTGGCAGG; MOE gapmer, wing and gap sizes not given here) | 76

Please give the measured MCV for this substance: ISIS 416838: MOE gapmer, nucleobases 1018 to 1042 of SEQ ID NO: 1 (Table 6) (antisense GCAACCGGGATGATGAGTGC; MOE gapmer, wing and gap sizes not given here)
77

Please give the measured MCV for this substance: ISIS 416858: MOE gapmer, nucleobases 1275 to 1318 of SEQ ID NO: 1 (Table 8) (antisense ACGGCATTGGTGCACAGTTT; MOE gapmer, wing and gap sizes not given here)
72

Please give the measured MCV for this substance: ISIS 416850: MOE gapmer, nucleobases 1275 to 1318 of SEQ ID NO: 1 (Table 8) (antisense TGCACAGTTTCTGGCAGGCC; MOE gapmer, wing and gap sizes not given here)
77

Please give the measured MCV for this substance: ISIS 416864: MOE gapmer, nucleobases 1275 to 1318 of SEQ ID NO: 1 (Table 8) (antisense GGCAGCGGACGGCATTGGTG; MOE gapmer, wing and gap sizes not given here)
74

---

System: IL-1β, IL-6, IFN-γ, TNF-α, IL-8, MIP-1α, MCP-1, MIP-1β, RANTES
Test: Cytokine and chemokine assays in cynomolgus monkeys (Example 46)
Assay type: in vivo
Conditions: day-14 (before start of treatment)
Strand notation (5' to 3'): a small letter for the sugar, then the base; units joined by * are phosphorothioate-linked, units joined directly phosphodiester-linked; [ ] holds rarer units or linkages, { } end groups; capitals alone tell only the bases. e = 2'-O-(2-methoxyethyl) (MOE); [5mC] = 5-methylcytosine; d = 2'-deoxy (DNA)
endpoint.label: TNF-α level (pg/mL)
Give a bare numeral; the unit pg/mL is implied.

ISIS 445531: 5-8-5 or 6-8-6 MOE microwalk gapmer (Table 44) (antisense eG*eG*e[5mC]*eA*eT*dT*dG*dG*dT*dG*d[5mC]*dA*d[5mC]*eA*eG*eT*eT*eT) | 9
ISIS 445522: 5-8-5 or 6-8-6 MOE microwalk gapmer (Table 44) (antisense eG*e[5mC]*eA*e[5mC]*eA*dG*dT*dT*dT*d[5mC]*dT*dG*dG*e[5mC]*eA*eG*eG*e[5mC]) | 16
ISIS 449707: 3-8-3, 4-8-4, 2-10-2, 3-10-3 or 4-10-4 MOE microwalk gapmer (Table 46) (antisense e[5mC]*eA*e[5mC]*eA*dG*dT*dT*dT*d[5mC]*dT*dG*dG*e[5mC]*eA*eG*eG) | 6
ISIS 416858: MOE gapmer, nucleobases 1275 to 1318 of SEQ ID NO: 1 (Table 8) (antisense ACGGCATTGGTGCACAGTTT; MOE gapmer, wing and gap sizes not given here) | 4

Consider the record given below.
Please give the measured TNF-α level for this substance: ISIS 449711: 3-8-3, 4-8-4, 2-10-2, 3-10-3 or 4-10-4 MOE microwalk gapmer (Table 46) (antisense eA*e[5mC]*dA*dG*dT*dT*dT*d[5mC]*dT*dG*dG*d[5mC]*eA*eG)
6
